test: Azacitidine plasma pharmacokinetics, non-compartmental analysis; format: in vivo, patients; conditions: human, plasma, intravenous, azacitidine/oxaliplatin 50/30 mg/m^2; C1D5; n = 22; mean (SD); read-out: AUCinf
readoutName: AUC(0-inf) (ng·h/mL)
State the answer as a number, implicitly in ng·h/mL.

Query string: Report measured AUC(0-inf); entry is Nc1ncn([C@@H]2O[C@H](CO)[C@@H](O)[C@H]2O)c(=O)n1 [azacitidine]
Result string: 432

* * *

experiment: Azacitidine plasma pharmacokinetics, non-compartmental analysis; assay type: in vivo, patients; details: human, plasma, intravenous, azacitidine/oxaliplatin 20/22.5 mg/m^2; C1D5; n = 3; mean (SD); read-out: AUCinf
readoutName: AUC(0-inf)
For clarity, give the value followed by its unit.

Query string: Given the compound Nc1ncn([C@@H]2O[C@H](CO)[C@@H](O)[C@H]2O)c(=O)n1 , write its reported AUC(0-inf).
Result string: 357 ng·h/mL

* * *

experiment: Azacitidine plasma pharmacokinetics, non-compartmental analysis; assay type: in vivo, patients; settings: human, plasma, intravenous, azacitidine/oxaliplatin 20/22.5 mg/m^2; C1D5; n = 3; mean (SD)
readoutName: Cmax (ng/mL)
Express your answer in ng/mL, writing the number without its unit.

Query string: Read off the recorded Cmax for Nc1ncn([C@@H]2O[C@H](CO)[C@@H](O)[C@H]2O)c(=O)n1 [azacitidine]
Result string: 452

* * *

assay: Azacitidine plasma pharmacokinetics, non-compartmental analysis; format: in vivo, patients; details: human, plasma, intravenous, azacitidine/oxaliplatin 25/30 mg/m^2; C1D5; n = 3; mean (SD); read-out: AUCinf
readoutName: AUC(0-inf) (ng·h/mL)
Reply numerically in ng·h/mL, unit not repeated.

Query string: Report measured AUC(0-inf); entry is Nc1ncn([C@@H]2O[C@H](CO)[C@@H](O)[C@H]2O)c(=O)n1
Result string: 214

* * *

experiment: Azacitidine plasma pharmacokinetics, non-compartmental analysis; assay type: in vivo, patients; details: human, plasma, intravenous, azacitidine/oxaliplatin 20/30 mg/m^2; C1D5; n = 3; mean (SD); read-out: AUCinf
readoutName: AUC(0-inf) (ng·h/mL)
Report the value in ng·h/mL with no unit label.

Query string: Please report the measured AUC(0-inf) for Nc1ncn([C@@H]2O[C@H](CO)[C@@H](O)[C@H]2O)c(=O)n1 [azacitidine]
Result string: 146

* * *

experiment: Azacitidine plasma pharmacokinetics, non-compartmental analysis; format: in vivo, patients; settings: human, plasma, intravenous, azacitidine/oxaliplatin 25/30 mg/m^2; C1D5; n = 3; mean (SD)
readoutName: half-life (min)
Give just the numeric value; min need not be written.

Query string: Provide one value: measured half-life of Nc1ncn([C@@H]2O[C@H](CO)[C@@H](O)[C@H]2O)c(=O)n1 [azacitidine]
Result string: 43.2

* * *

experiment: Azacitidine plasma pharmacokinetics, non-compartmental analysis; format: in vivo, patients; conditions: human, plasma, intravenous, azacitidine/oxaliplatin 20/15 mg/m^2; C1D5; n = 3; mean (SD)
readoutName: AUC
The answer consists of two parts: a number and, after it, its unit.

Query string: Retrieve AUC measured for Nc1ncn([C@@H]2O[C@H](CO)[C@@H](O)[C@H]2O)c(=O)n1 and print it.
Result string: 193 ng·h/mL

* * *

experiment: Azacitidine plasma pharmacokinetics, non-compartmental analysis; type: in vivo, patients; details: human, plasma, intravenous, azacitidine/oxaliplatin 20/30 mg/m^2; C1D5; n = 3; mean (SD)
readoutName: AUC
Could you kindly put the unit after your number?

Query string: Using the record for Nc1ncn([C@@H]2O[C@H](CO)[C@@H](O)[C@H]2O)c(=O)n1 [azacitidine] , state its measured AUC.
Result string: 144 ng·h/mL

* * *

Test: Azacitidine plasma pharmacokinetics, non-compartmental analysis
Assay type: in vivo, patients
Settings: human, plasma, intravenous, azacitidine/oxaliplatin 50/30 mg/m^2; C1D5; n = 22; mean (SD)
Source text: Compartmental and non-compartmental modeling were used to derive pharmacokinetic parameters, including Cmax (maximum concentration), AUC (area under the curve), t1/2 (half-life of elimination), Vd (volume of distribution), and CL (clearance).
readoutName: half-life (min)
Express your answer in min, writing the number without its unit.

Query string: Annotate the molecule Nc1ncn([C@@H]2O[C@H](CO)[C@@H](O)[C@H]2O)c(=O)n1 [azacitidine] with its measured half-life.
Result string: 25.2

* * *

assay: Azacitidine plasma pharmacokinetics, non-compartmental analysis; format: in vivo, patients; details: human, plasma, intravenous, azacitidine/oxaliplatin 50/30 mg/m^2; C1D1; n = 22; mean (SD)
readoutName: Cmax

Query string: Supply reported Cmax belonging to this compound: Nc1ncn([C@@H]2O[C@H](CO)[C@@H](O)[C@H]2O)c(=O)n1
Result string: 581 ng/mL

* * *

assay: Azacitidine plasma pharmacokinetics, non-compartmental analysis; format: in vivo, patients; conditions: human, plasma, intravenous, azacitidine/oxaliplatin 50/30 mg/m^2; C1D5; n = 22; mean (SD)
readoutName: Cmax
A complete answer gives the number and then names the unit.

Query string: Note Cmax for the molecule shown: Nc1ncn([C@@H]2O[C@H](CO)[C@@H](O)[C@H]2O)c(=O)n1
Result string: 638 ng/mL

* * *

assay: Azacitidine plasma pharmacokinetics, non-compartmental analysis; assay type: in vivo, patients; conditions: human, plasma, intravenous, azacitidine/oxaliplatin 20/22.5 mg/m^2; C1D1; n = 3; median (footnote a); read-out: AUCinf, median
readoutName: AUC(0-inf) (ng·h/mL)
Please give a number only; it is taken to be in ng·h/mL.

Query string: Item Nc1ncn([C@@H]2O[C@H](CO)[C@@H](O)[C@H]2O)c(=O)n1 [azacitidine] : provide AUC(0-inf)
Result string: 259

* * *

assay: Azacitidine plasma pharmacokinetics, non-compartmental analysis; format: in vivo, patients; settings: human, plasma, intravenous, azacitidine/oxaliplatin 25/30 mg/m^2; C1D1; n = 3; mean (SD)
readoutName: AUC
Hey, just the number and the unit after it is fine.

Query string: Note down AUC recorded for Nc1ncn([C@@H]2O[C@H](CO)[C@@H](O)[C@H]2O)c(=O)n1 [azacitidine]
Result string: 0.21 µg·h/mL

* * *

Assay: Azacitidine plasma pharmacokinetics, non-compartmental analysis
Assay type: in vivo, patients
Conditions: human, plasma, intravenous, azacitidine/oxaliplatin 40/30 mg/m^2; C1D5; n = 3; mean (SD)
Source text: Compartmental and non-compartmental modeling were used to derive pharmacokinetic parameters, including Cmax (maximum concentration), AUC (area under the curve), t1/2 (half-life of elimination), Vd (volume of distribution), and CL (clearance).
readoutName: Cmax (ng/mL)
Give the value in ng/mL but do not write ng/mL after it.

Query string: Consider the compound Nc1ncn([C@@H]2O[C@H](CO)[C@@H](O)[C@H]2O)c(=O)n1 [azacitidine] and give its recorded Cmax.
Result string: 289

* * *

test: Azacitidine plasma pharmacokinetics, non-compartmental analysis; format: in vivo, patients; settings: human, plasma, intravenous, azacitidine/oxaliplatin 25/30 mg/m^2; C1D1; n = 3; mean (SD); read-out: AUCinf
readoutName: AUC(0-inf) (ng·h/mL)
Response body: numeric value in ng·h/mL, unit text excluded.

Query string: Input Nc1ncn([C@@H]2O[C@H](CO)[C@@H](O)[C@H]2O)c(=O)n1 , output reported AUC(0-inf).
Result string: 216

* * *

Test: Azacitidine plasma pharmacokinetics, non-compartmental analysis
Format: in vivo, patients
Conditions: human, plasma, intravenous, azacitidine/oxaliplatin 20/22.5 mg/m^2; C1D1; n = 3; mean (SD); read-out: AUCinf
Text: Compartmental and non-compartmental modeling were used to derive pharmacokinetic parameters, including Cmax (maximum concentration), AUC (area under the curve), t1/2 (half-life of elimination), Vd (volume of distribution), and CL (clearance).
readoutName: AUC(0-inf) (ng·h/mL)
# value in ng·h/mL; strip the unit string

Query string: Look up AUC(0-inf) of Nc1ncn([C@@H]2O[C@H](CO)[C@@H](O)[C@H]2O)c(=O)n1 and report it.
Result string: 2330

* * *

assay: Azacitidine plasma pharmacokinetics, non-compartmental analysis; format: in vivo, patients; conditions: human, plasma, intravenous, azacitidine/oxaliplatin 20/22.5 mg/m^2; C1D5; n = 3; mean (SD)
readoutName: AUC
Answer shape: numeric part, then the unit.

Query string: Let me know recorded AUC for Nc1ncn([C@@H]2O[C@H](CO)[C@@H](O)[C@H]2O)c(=O)n1 , thanks.
Result string: 317 ng·h/mL

* * *

test: Azacitidine plasma pharmacokinetics, non-compartmental analysis; assay type: in vivo, patients; conditions: human, plasma, intravenous, azacitidine/oxaliplatin 40/30 mg/m^2; C1D1; n = 3; mean (SD)
readoutName: Cmax (ng/mL)
Record the value in ng/mL, omitting the unit from your answer.

Query string: Dear colleague, please send me the reported Cmax for Nc1ncn([C@@H]2O[C@H](CO)[C@@H](O)[C@H]2O)c(=O)n1 when you can.
Result string: 190

* * *

experiment: Azacitidine plasma pharmacokinetics, non-compartmental analysis; format: in vivo, patients; settings: human, plasma, intravenous, azacitidine/oxaliplatin 50/30 mg/m^2; C1D1; n = 22; mean (SD)
readoutName: half-life (min)
Give just the numeric value; min need not be written.

Query string: Output measured half-life for this item: Nc1ncn([C@@H]2O[C@H](CO)[C@@H](O)[C@H]2O)c(=O)n1
Result string: 40.2
